- ASSAY TEXT: qHTS RealTime-Glo MT Cell Viability Assay in HEK293 cells - 24 hour (AID 1224886); also: nearly all actives have a fitted effect of over 50% in size
- MEASUREMENT CONDITIONS: RealTime-Glo luminescence; series mostly up to 76.8 µM
Inconclusive results are not listed. The source made the active and inactive calls. Calls follow the shape of the dose curve; as a rule, active = well fitted cell-killing curve with a large enough effect in the repeat runs; inconclusive = weak or mixed curves, or effect the other way; inactive = flat fitted curve, though single readings scatter.
Select the correct class. Options are active, inactive and nothing else.

- COMPOUND: "CCCCCCCCCCn1cc[n+](C)c1"
  QUALITATIVE LABEL: "active"
- COMPOUND: "Oc1ccccc1-c1ccccc1"
  QUALITATIVE LABEL: "inactive"
- COMPOUND: "OCCOc1ccccc1"
  QUALITATIVE LABEL: "inactive"
- COMPOUND: "CCCC[n+]1cccc(C)c1"
  QUALITATIVE LABEL: "inactive"
- COMPOUND: "O=C(O)CC(O)(CC(=O)O)C(=O)O"
  QUALITATIVE LABEL: "inactive"

Prompt: Check the results log: what was the call for O=[N+]([O-])O ?
Completion: inactive

Prompt: Check the results log: what was the call for CC(Cl)(Cl)C(=O)O ?
Completion: inactive

Prompt: Check the results log: what was the call for O=[N+]([O-])c1ccccc1O ?
Completion: inactive

Prompt: Check the results log: what was the call for CCC[N+]1(C)CCCC1 ?
Completion: inactive

Prompt: Check the results log: what was the call for CCCCCC[n+]1ccccc1 ?
Completion: inactive

Prompt: Check the results log: what was the call for C=CCOC(Cn1ccnc1)c1ccc(Cl)cc1Cl (configuration not stated) ?
Completion: active

Prompt: Check the results log: what was the call for CCC[N+]1(C)CCCCC1 ?
Completion: inactive

Prompt: Check the results log: what was the call for CC(=O)O ?
Completion: inactive

Prompt: Check the results log: what was the call for N#CS ?
Completion: inactive

Prompt: Check the results log: what was the call for Nc1ccc(-c2ccc(N)cc2)cc1 ?
Completion: inactive

Prompt: Check the results log: what was the call for Cc1cc(Cl)ccc1N ?
Completion: inactive

Prompt: Check the results log: what was the call for O=C(O)c1ccccc1O ?
Completion: inactive

----------
- ASSAY TEXT: Caspase-3/7 induction in CHO-K1 cells by small molecules, qHTS assay (AID 1346980); also: nearly all actives have a fitted effect of over 15% in size
- MEASUREMENT CONDITIONS: CHO-K1 caspase-3/7 induction, Caspase-Glo luminescence, 17 h; series mostly up to 92.4 µM
Activity calls are given as the source filed them. The call rests on the fitted dose curve; in most records, active means well fitted activation curve with a large enough effect in the repeat runs; inconclusive means weak or mixed curves; inactive means flat fitted curve, though single readings scatter.
OUTCOME MEASURE: outcome

- MOLECULE: "O=c1nc(O)n(Cl)c(=O)n1Cl"
  outcome: "inactive"
- MOLECULE: "C=CCOC(Cn1ccnc1)c1ccc(Cl)cc1Cl (stereo not drawn)"
  outcome: "inactive"
- MOLECULE: "CCCCCCCCn1cc[n+](C)c1"
  outcome: "inactive"
- MOLECULE: "COCC(=O)N(c1c(C)cccc1C)C(C)C(=O)OC (stereo not drawn)"
  outcome: "inactive"
- MOLECULE: "N#CS"
  outcome: "inactive"
- MOLECULE: "CCCCn1cc[n+](C)c1"
  outcome: "inactive"
- MOLECULE: "C1CCC(NC2CCCCC2)CC1"
  outcome: "inactive"
- MOLECULE: "CCC[N+]1(C)CCCCC1"
  outcome: "inactive"

Prompt: Fill in: outcome of CC[N+]1(C)CCCC1 is ___
Completion: inactive

Prompt: Fill in: outcome of O=[N+]([O-])c1ccccc1O is ___
Completion: inactive
